Quick reference: GI50 of the listed items.
Tested on: UO-31 renal
Assay: NCI tumour cell line growth inhibition, 48 h

Example compounds with recorded GI50:
compound	GI50
CC[C@H](Nc1nc(NCc2cnc(C)cc2C)c2ncn(C(C)C)c2n1)[C@@H](C)O	272 nM
Cc1cc(S(N)(=O)=O)c(S/C(CC(C)C)=N\Nc2ccc([N+](=O)[O-])cc2)cc1Cl	11100 nM
Cc1cc2nc3c4cc(N)ccc4n(CCN(C)C)c3nc2cc1C	439 nM
Ic1ccccc1-c1ccccc1	74500 nM
O=C1C(=O)c2ccccc2C(O)=C1CC=C(Br)Br	6130 nM

## Input State measured GI50 of the compound COC(=O)c1c2c(c(C)[n+]([O-])c1C)C(=O)C=C(NCc1ccc(F)c(Cl)c1)C2=O with UO-31 renal.
## Output 1050 nM

## Input Give UO-31 renal GI50 for the following compound: CCOC(=O)c1[nH]c(Br)c(-c2ccc(Br)cc2)c1Br
## Output 1130 nM

## Input # return GI50 for CC(=O)[CH-]C(=O)c1ccccc1.CC(=O)[CH-]C(=O)c1ccccc1.CC(C)CCCC(C)[C@H]1CCC2[C@@H]3CC=C4C[C@@H]([O-])CC[C@]4(C)C3CC[C@@]21C.CC[O-].[Ti+4] (some centres not stated) , test system: UO-31 renal
## Output 29400 nM

## Input Look up and report GI50, with UO-31 renal as system, for COC1CC2CCC(C)C(O)(O2)C(=O)C(=O)N2CCCCC2C(=O)OC(C(C)CC2CCC(O)C(OC)C2)CC(=O)C(C)C=C(C)C(O)C(OC)C(=O)C(C)CC(C)/C=C/C=C/C=C1C (configuration not stated)
## Output < 5 nM

## Input Using UO-31 renal as the test system, report measured GI50 of COc1ccc(/C=C/C(=O)c2ccc(SC)cc2)cc1OC .
## Output 13300 nM

## Input Give the observed GI50 of Cc1ccc(-n2c3c(c4c(CN(C)C)c(O)ccc42)CCc2ccccc2C3=O)cc1 for UO-31 renal.
## Output 15900 nM

## Input State measured GI50 of the compound C/C(=N/Nc1nc2ccccc2n1C)c1ccccn1 with UO-31 renal.
## Output 67.2 nM
